B1: IKZF1 (parent)
chain: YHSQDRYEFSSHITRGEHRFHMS

Variants of: B1
testSummary: protein stability index of a GFP-peptide fusion (GPS, HEK-293T) (PSI 1-6); higher = more stable;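 note: lentivirally expressed fusions sorted by FACS into six bins by GFP to DsRed ratio, PSI derived from sequencing read proportions per bin multiplied by bin number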
appliedConditions: c terminus: native
Note to self: values exactly at 2 are True. So protein stability index at or above 2 is True, below is False.

[
  {
    "variantSpec": "Q4K",
    "className": "True"
  },
  {
    "variantSpec": "D5V",
    "className": "True"
  },
  {
    "variantSpec": "H21Q",
    "className": "True"
  },
  {
    "variantSpec": "R19E",
    "className": "True"
  },
  {
    "variantSpec": "M22I",
    "className": "True"
  },
  {
    "variantSpec": "I13C",
    "className": "True"
  },
  {
    "variantSpec": "S11L",
    "className": "True"
  },
  {
    "variantSpec": "H21Y",
    "className": "False"
  },
  {
    "variantSpec": "H21R",
    "className": "True"
  },
  {
    "variantSpec": "R15P",
    "className": "False"
  },
  {
    "variantSpec": "Q4T",
    "className": "False"
  },
  {
    "variantSpec": "D5G",
    "className": "True"
  },
  {
    "variantSpec": "Y7P",
    "className": "False"
  },
  {
    "variantSpec": "H2P",
    "className": "True"
  },
  {
    "variantSpec": "S10P",
    "className": "True"
  },
  {
    "variantSpec": "Y1T",
    "className": "True"
  },
  {
    "variantSpec": "G16M",
    "className": "True"
  },
  {
    "variantSpec": "D5T",
    "className": "True"
  },
  {
    "variantSpec": "Y1A",
    "className": "True"
  }
]

The measurements presented in this section are drawn from the supplement of paper PMC10567573.
